# assay_procedure: in vitro
# Type: cell-based
# cond: Chinese hamster, Cytotox. CHO-K1
Quick reference for IC50 at 24 h among some compounds

> print(dat)
                                   compound  assay.endpoint  measured.value
1  CN(C)[C@@H]1C(O)=C(C(N)=O)C(=O)[C@@]2(O)C(O)=C3C(=O)c4c(O)ccc(-c5cnc6ccccc6c5)c4C[C@H]3C[C@@H]12 [G]    IC50 at 24 h         14.8 µM
2  CCN(CC)CCNC(=O)c1cccc(-c2ccc(O)c3c2C[C@H]2C[C@H]4[C@H](N(C)C)C(O)=C(C(N)=O)C(=O)[C@@]4(O)C(O)=C2C3=O)c1 [E]    IC50 at 24 h        > 139 µM
3  CN(C)[C@H]1C(O)=C(C(N)=O)C(=O)[C@@]2(O)C(O)=C3C(=O)c4c(O)ccc(-c5cnc6ccccc6c5)c4C[C@H]3C[C@@H]12 [H]    IC50 at 24 h       > 15.9 µM

Enquiry: Returns the measured IC50 at 24 h for the input compound. Input: CN(C)[C@@H]1C(O)=C(C(N)=O)C(=O)[C@@]2(O)C(O)=C3C(=O)c4c(O)ccc(C(=O)CNCc5ccccn5)c4C[C@H]3C[C@@H]12 [BY]
Return: > 13.4 µM

Enquiry: Another compound to look at: CC(C)N(C)CC(=O)c1ccc(O)c2c1C[C@H]1C[C@H]3[C@H](N(C)C)C(O)=C(C(N)=O)C(=O)[C@@]3(O)C(O)=C1C2=O [AJ]
Return: > 150 µM

Enquiry: Can you handle C=CCNCC(=O)c1ccc(O)c2c1C[C@H]1C[C@H]3[C@H](N(C)C)C(O)=C(C(N)=O)C(=O)[C@@]3(O)C(O)=C1C2=O [BV] next?
Return: 27.6 µM

Enquiry: Next up: CN(C)CC(=O)N1CC=C(c2ccc(O)c3c2C[C@H]2C[C@H]4[C@H](N(C)C)C(O)=C(C(N)=O)C(=O)[C@@]4(O)C(O)=C2C3=O)CC1 [AL]
Return: > 145 µM

Enquiry: Would you kindly repeat that for CCOC(=O)N1CCN(CC(=O)c2ccc(O)c3c2C[C@H]2C[C@H]4[C@H](N(C)C)C(O)=C(C(N)=O)C(=O)[C@@]4(O)C(O)=C2C3=O)CC1 [BR] ?
Return: > 40.7 µM

Enquiry: Try this compound next: COC(=O)c1ccc(-c2ccc(O)c3c2C[C@H]2C[C@H]4[C@H](N(C)C)C(O)=C(C(N)=O)C(=O)[C@@]4(O)C(O)=C2C3=O)cc1 [AR]
Return: < 2.53 µM

Enquiry: And CCN(CC)CCNC(=O)c1cccc(-c2ccc(O)c3c2C[C@H]2C[C@H]4[C@@H](N(C)C)C(O)=C(C(N)=O)C(=O)[C@@]4(O)C(O)=C2C3=O)c1 [O] ?
Return: > 135 µM

Enquiry: Let us now turn to CN(CCOC(C)(C)C)Cc1cccc(-c2ccc(O)c3c2C[C@H]2C[C@H]4[C@H](N(C)C)C(O)=C(C(N)=O)C(=O)[C@@]4(O)C(O)=C2C3=O)c1 [BM]
Return: 21.6 µM

Enquiry: Now the compound CN(C)CCCc1cccc(-c2ccc(O)c3c2C[C@H]2C[C@H]4[C@H](N(C)C)C(O)=C(C(N)=O)C(=O)[C@@]4(O)C(O)=C2C3=O)c1 [DJ]
Return: 119 µM

Enquiry: Try the compound COCCNCc1ccoc1-c1ccc(O)c2c1C[C@H]1C[C@H]3[C@H](N(C)C)C(O)=C(C(N)=O)C(=O)[C@@]3(O)C(O)=C1C2=O [BQ]
Return: > 141 µM
